Test system: 997726-040-R-J2-PDC tumor spheroids, viability;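 note: spheroids exposed to compounds for seven days before readout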
Assay: Anticancer human tumor 997726-040-R-J2-PDC patient-derived squamous cell lung carcinoma cell line growth inhibition [PI3K]
Conditions: curve of first compound; second compound 0.1 µM; spheroids with HUVEC and MSC
Parameter IC50: see the listing below.

Check out these entries, answers already filled in.
| compound | IC50 |
| --- | --- |
| C#Cc1c(F)ccc2cc(O)cc(-c3ncc4c(N5CC6CCC(C5)N6)nc(OCC56CCCN5CC(F)C6)nc4c3F)c12 (stereo not given) + CC(Nc1ccc2c(c1)OCCn1cc(N3C(=O)OCC3C(F)F)nc1-2)C(N)=O | < 31.6 nM |
| Cn1ncnc1[C@H]1c2n[nH]c(=O)c3cc(F)cc(c23)N[C@@H]1c1ccc(F)cc1 + CC(Nc1ccc2c(c1)OCCn1cc(N3C(=O)OCC3C(F)F)nc1-2)C(N)=O | < 0.316 nM |
| CCCS(=O)(=O)Nc1ccc(F)c(C(=O)c2c[nH]c3ncc(-c4ccc(Cl)cc4)cc23)c1F + Cc1nc(NC(=O)N2CCCC2C(N)=O)sc1-c1ccnc(C(C)(C)C(F)(F)F)c1 | 6000 nM |
| C=CC(=O)N1CCN(c2nc(=O)n(-c3c(C)ccnc3C(C)C)c3nc(-c4c(O)cccc4F)c(F)cc23)C(C)C1 (stereo not given) + COc1c(OCCCN2CCOCC2)ccc2c3n(c(=NC(=O)c4cnc(N)nc4)nc12)CCN3 | < 31.6 nM |

# context switch: different compound, same IC50
## Task IC50 lookup needed for Cn1cnc2c(F)c(Nc3ccc(Br)cc3Cl)c(C(=O)NOCCO)cc21 + CC(Nc1ccc2c(c1)OCCn1cc(N3C(=O)OCC3C(F)F)nc1-2)C(N)=O , thanks.
## Result < 9.49 nM

Origin of measurements: PubChem BioAssay AID1963964
